# tgt: Endoribonuclease toxin MazF (Escherichia coli K-12, UniProt P0AE70)
# Sequence (P0AE70 whole entry): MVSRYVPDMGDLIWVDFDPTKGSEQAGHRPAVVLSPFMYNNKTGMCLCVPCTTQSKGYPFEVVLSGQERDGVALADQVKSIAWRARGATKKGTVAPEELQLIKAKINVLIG
# test name: substrate-only fluorescence increase artefacts – biochemical, single-stranded RNase substrate, counter-screen for MazEF activator project, dose response (AID 588502)
# Format: functional
Calls of active or inactive are those of the source.
assay metric: EC50

Illustrative cases are given below, each with its answer.
CCc1ccc[n+](-c2nc3ccccc3nc2[C-](C#N)C#N)c1 | > 99 µM (inactive)
COc1cc(OC)c(OC)cc1/C=C(\C#N)C(=O)NCc1cccs1 | > 99 µM (inactive)
COc1ccc2nc(SCC(=O)N3CC(=O)Nc4ccccc43)c(C#N)cc2c1 | > 99 µM (inactive)
COc1ccc(-c2cc(C(F)(F)F)c3c(N)c(C(=O)NCCSC)sc3n2)cc1 | 61.6 µM (inactive)

Please report the recorded EC50 for CCN1C(C)=C(C)S/C1=C1\SC(=S)N(C2CCCCC2)C1=O .
> 99 µM (inactive)

====

# tgt: Coagulation factor XII (Homo sapiens, UniProt P00748)
# Sequence (P00748 20-372 limits assumed): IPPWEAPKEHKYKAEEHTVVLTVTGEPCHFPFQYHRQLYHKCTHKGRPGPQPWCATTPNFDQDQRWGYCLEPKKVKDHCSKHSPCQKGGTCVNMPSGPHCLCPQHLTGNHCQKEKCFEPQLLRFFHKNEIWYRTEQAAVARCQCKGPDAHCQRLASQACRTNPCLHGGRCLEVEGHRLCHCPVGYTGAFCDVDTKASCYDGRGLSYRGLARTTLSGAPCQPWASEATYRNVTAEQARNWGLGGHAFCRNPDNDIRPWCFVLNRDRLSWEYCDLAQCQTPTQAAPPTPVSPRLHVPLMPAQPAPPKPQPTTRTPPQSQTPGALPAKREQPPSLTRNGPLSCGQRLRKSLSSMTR
# Sequence (P00748 373-615 limits assumed): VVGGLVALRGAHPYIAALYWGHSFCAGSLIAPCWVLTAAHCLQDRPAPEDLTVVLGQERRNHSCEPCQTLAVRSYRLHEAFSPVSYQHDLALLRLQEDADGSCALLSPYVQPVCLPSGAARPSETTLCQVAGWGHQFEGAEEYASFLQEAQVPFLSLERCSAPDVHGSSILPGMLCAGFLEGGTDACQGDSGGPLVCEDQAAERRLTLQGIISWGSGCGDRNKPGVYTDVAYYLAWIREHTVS
# Type: functional
Active and inactive are the calls of the source.
assay metric: IC50

COc1ccc(C(=O)N/N=C/c2cc3ccccc3nc2O)cc1 | > 50 µM (inactive)
COC(=O)c1[nH]c(C)c(C(=O)C2=C(O)C(=O)N(CCN(C)C)C2c2cccc(OC)c2OC)c1C (centres undefined) | > 50 µM (inactive)
Cn1c(NCCc2ccccc2)cc(=O)n(C)c1=O | > 50 µM (inactive)

Read the next record carefully.
Entry CC(NC(=O)Nc1nnc(C(F)(F)F)s1)(C(F)(F)F)C(F)(F)F : reported IC50 = ?
> 50 µM (inactive)

====

# tgt: Heat shock factor protein 1 (Mus musculus, UniProt P38532)
# Sequence (P38532 whole entry): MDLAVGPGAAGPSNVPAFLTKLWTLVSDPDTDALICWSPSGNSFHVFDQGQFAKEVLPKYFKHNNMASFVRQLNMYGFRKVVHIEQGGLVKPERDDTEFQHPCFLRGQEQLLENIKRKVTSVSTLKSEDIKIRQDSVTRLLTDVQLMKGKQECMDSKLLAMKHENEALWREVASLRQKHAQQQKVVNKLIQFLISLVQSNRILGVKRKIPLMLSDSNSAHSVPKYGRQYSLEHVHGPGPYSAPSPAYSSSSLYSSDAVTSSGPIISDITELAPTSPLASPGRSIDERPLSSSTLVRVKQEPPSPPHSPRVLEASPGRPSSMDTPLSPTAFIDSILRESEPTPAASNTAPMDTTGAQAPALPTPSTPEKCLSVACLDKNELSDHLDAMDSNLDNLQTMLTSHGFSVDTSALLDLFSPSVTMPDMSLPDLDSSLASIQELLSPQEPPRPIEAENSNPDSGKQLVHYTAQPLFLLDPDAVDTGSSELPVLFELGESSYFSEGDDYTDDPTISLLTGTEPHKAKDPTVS
# test name: decrease of HSF1-responsive luciferase luminescence – cell-based, NIH3T3, dose retest, confirmation (AID 2382);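 further: NIH3T3 fibroblasts with HSF1-driven luciferase reporter stressed by proteasome inhibitor MG132; luminescence from HSF1-driven luciferase expression after 8 hours of MG132 stress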
# Type: functional
Activity calls are given as the source filed them.
Measured EC50 accompanies every entry in the list below.

Examples from the recorded data:
Cc1ccccc1N1C(=O)/C(=C/NNC(=O)c2ccccc2O)C(=O)NC1=S | 30.8 µM (active)
CCOc1ccccc1C(=O)Nc1ccc(NC(=O)c2ccccc2)cc1 | > 195 µM (not active)

Recorded EC50 for CC(C)(C)C(=O)N1CCN(CCN2C(=O)c3cccc4cccc(c34)C2=O)CC1 with Heat shock factor protein 1 (Mus musculus, UniProt P38532), please?
> 195 µM (not active)

Under Heat shock factor protein 1 (Mus musculus, UniProt P38532): EC50 value of O=[N+]([O-])c1ccccc1CCc1cnc(Cl)s1 ?
> 195 µM (not active)

Recall the recorded EC50 for COc1ccc2c(c1OC)C(=O)OC2Nc1ccc(S(=O)(=O)N=C(N)N)cc1 (stereo not given) with Heat shock factor protein 1 (Mus musculus, UniProt P38532) and state it.
> 195 µM (not active)

Form field: EC50 recorded for CCOC(=O)Cn1c(CCC(=O)O)ccc1-c1ccc(F)cc1 with Heat shock factor protein 1 (Mus musculus, UniProt P38532) (enter value)
> 195 µM (not active)

Which measured EC50 belongs to Cc1ccc(NC(=O)CN2C(=O)NC3(CCCC3)C2=O)c(Cl)c1 , tested on Heat shock factor protein 1 (Mus musculus, UniProt P38532)?
> 195 µM (not active)

Query for Heat shock factor protein 1 (Mus musculus, UniProt P38532): what EC50 does the record show for Cc1ccc(N2C(=O)c3ccccc3C2Nc2ccccc2F)nc1 (stereo not given) ?
> 195 µM (not active)

Could you share what EC50 was measured for COc1cc(/C=N/NC(=O)c2cc(C)oc2C)ccc1O , tested on Heat shock factor protein 1 (Mus musculus, UniProt P38532)?
> 195 µM (not active)
